Hello, the source for this data is the Deep4Chem optical property database, in case you need it.

- assay.overview: photoluminescence quantum yield (fraction); solvent given as SMILES
- study.conditions: in C1CCCCC1
Classification field: MET = photoluminescence quantum yield at or over 0.3; NOT MET = photoluminescence quantum yield under 0.3.

{"columns": ["compound", "class.assignment"],
 "data": [
  ["[C-]#[N+]c1ccc(-c2ccc(N(C)C)cc2)cc1", "MET"],
  ["CC(C)(C)c1ccc(C2=C(c3ccc(C(C)(C)C)cc3)C(c3ccc(C(C)(C)C)cc3)=[N+]3C2=C(c2ccccc2)c2c(-c4ccc(C(C)(C)C)cc4)c(-c4ccc(C(C)(C)C)cc4)c(-c4ccc(C(C)(C)C)cc4)n2[B-]3(F)F)cc1", "MET"],
  ["CN(C)c1ccc(C#Cc2ccc(C#N)cc2)cc1", "MET"],
  ["C(=C\\N1CCCC1)/c1nc2ccccc2nc1-c1ccccc1", "NOT MET"],
  ["CCCC1(CCC)c2cc(-c3ccc4c(c3)C(CCC)(CCC)c3cc(-c5ccc6c(c5)C(CCC)(CCC)c5cc(C(C)(C)CC)ccc5-6)ccc3-4)ccc2-c2ccc(-c3ccc4c(c3)C(CCC)(CCC)c3cc(C(C)(C)CC)ccc3-4)cc21", "MET"],
  ["Cc1ccccc1C", "NOT MET"],
  ["COc1ccc2c(c1)-c1ccccc1C2=O", "NOT MET"],
  ["CC1=[N+]2C(=C(c3ccc4c(c3)Cc3ccccc3-4)c3ccc(C)n3[B-]2(F)F)C=C1c1cc2n(c1)[B-](F)(F)[N+]1=CC=CC1=C2c1c(C)cc(C)cc1C", "MET"],
  ["CCCCCCCCCCCCC(CCCCCCCCCC)Cn1c2cc(/C=C/C=C(C#N)C#N)c3cccc4c5cccc6c(/C=C/C=C(C#N)C#N)cc1c(c65)c2c34 (centres undefined)", "NOT MET"]
]}

====

photoluminescence quantum yield values, listed per item
- assay.overview: photoluminescence quantum yield (fraction); solvent given as SMILES
- study.conditions: in O

{"columns": ["molecule", "photoluminescence quantum yield"],
 "data": [
  ["CC/[NH+]=c1\\cc2oc3cc(NCCC(=O)NC(CCC(=O)OC)C(=O)OC)c4ccccc4c3nc-2cc1C (stereo unspecified)", 0.16],
  ["O=C([O-])c1ccccc1-c1c2ccc(=O)cc-2oc2cc([O-])ccc12", 0.95],
  ["O=Cc1ccc(-c2cccc(-c3nc4ccccc4s3)c2O)s1", 0.02],
  ["[NH3+]C(Cc1ccccc1)C(=O)[O-] (stereo unspecified)", 0.022],
  ["[C-]#[N+]c1ccc(-c2ccc(N(C)C)cc2)cc1", 0.016],
  ["O=c1[nH]c(=O)n([C@@H]2O[C@H](CO)[C@@H](O)[C@H]2O)cc1-c1cc2ccccc2s1", 0.035],
  ["CC1(C)C(/C=C/C=C/C=C/C=C2/N(CCCCCC(=O)O)c3ccc(S(=O)(=O)[O-])cc3C2(C)C)=[N+](CCCCCC(=O)O)c2ccc(S(=O)(=O)[O-])cc21", 0.28],
  ["O=C([O-])c1ccc(C(=O)[O-])c(C2=c3cc4c5c(c3Oc3c2cc2c6c3CCCN6CCC2)CCC[N+]=5CCC4)c1", 0.64],
  ["NS(=O)(=O)c1ccc(N2N=C(c3ccc(O)cc3)CC2c2ccccc2)cc1 (stereo unspecified)", 0.41],
  ["CN(C)CCCN1c2ccccc2Sc2ccc(C(F)(F)F)cc21", 0.0014],
  ["Cc1ccc(N(C)C)cc1C1=C2C=CC(=[N+](C)C)C=C2[Si](C)(C)c2cc(N(C)C)ccc21", 0.001],
  ["Cc1ccccc1C1=C2C=CC(=[N+](C)C)C=C2[Si](C)(C)c2cc(N(C)C)ccc21", 0.31],
  ["Cn1c(=O)c2c(ncn2C)n(C)c1=O", 0],
  ["CC1(C)C(/C=C/C=C/C=C/C=C2/N(CCCCCC(=O)O)c3ccc(S(=O)(=O)[O-])cc3C2(C)C)=[N+](CCCCS(=O)(=O)[O-])c2ccc(S(=O)(=O)[O-])cc21", 0.3],
  ["COCCOCCOCCOCCOc1cc(C=O)c(OCCOCCOCCOCCOC)cc1C=O", 0.55],
  ["CC[N+]1(CC)CN2C(=N1)C(C(=O)O)=Cc1cc(C)ccc12", 0.269],
  ["CC1(C)CC(=O)C2=C(C1)Oc1ccc3cc(O)ccc3c1C2c1ccccn1 (stereo unspecified)", 0.38],
  ["COc1ccc2cc3cccc[n+]3cc2c1", 0.2],
  ["CC1(C)CC(=O)C2=C(C1)Oc1ccc3ccc(O)cc3c1C2c1ccccn1 (stereo unspecified)", 0.2],
  ["CC/[NH+]=c1\\cc2oc3cc(NCCOC(=O)C(NC(=O)OC(C)(C)C)C(C)C)c4ccccc4c3nc-2cc1C (stereo unspecified)", 0.26],
  ["CC1(C)C(/C=C/C=C/c2cc3ccc(O)cc3oc2=O)=[N+](CCCS(=O)(=O)[O-])c2ccccc21", 0.013]
]}
